Biological target: T1, recombinant human CD70 (Flag-TNC-CD70) (human, UniProt P32970 39-193)
T1 construct: extracellular domain; Captured by anti-Flag mAb in ELISA; as 'recombinant human CD70' immobilised on Biacore CM5 chips; TNC is for trimerisation; also called recombinant CD70; human recombinant CD70; not shown: Flag tag and TNC trimerisation domain
T1 sequence (looked up): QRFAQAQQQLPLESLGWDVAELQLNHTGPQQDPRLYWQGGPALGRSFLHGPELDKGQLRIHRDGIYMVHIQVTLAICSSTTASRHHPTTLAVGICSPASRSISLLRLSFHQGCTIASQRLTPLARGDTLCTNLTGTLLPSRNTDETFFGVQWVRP
Test: inhibition ELISA; Flag-TNC-CD70 captured by anti-Flag mAb; competitor CD27-Fc
value type: log10 IC50 (log10 of the value in µg/mL)
Hello, just confirming the data are log10 of IC50 with units of µg/mL.

>>> test_result("9B2 chimeric llama-human mAb (antibody, human IgG1, V domains shown) VH: QLQVVESGGGLMQPGGSLRLSCAASGFTFSGSAMSWVRQAPGKGLEWVSSIYSHSMYTYYADSVKSRFTISTDNAKNTLYLQMNSLKPDDTAVYYCAASSDYEGLFVSWGQGTQVTVSS VL: QAVLTQPPSLSASPGSSVRLTCTLNSANSVGSYDISWYQQKAGSPPRYLLYYYSDSLSHQGSGVPSRFSGSTDASANAGLLLISGLQPEDEADYYCSAYNRGSHVFGGGTKLTVLG")
-0.90
>>> test_result("5F4 chimeric llama-human mAb (antibody, human IgG1, V domains shown) VH: EVQVQESGGGLVHPGGSLKLSCAASGFTFDTYAMSWVRQAPGKGLEWVSAISWSGGETFYAESMKGRFTISRNNAKNTLYLQMNSLKSEDTAVYYCARGMGLAEGLTDWGQGTQVTVSS VL: QAVVTHPPSLSASPGSSVRLTCTLISGDNIGGYDISWYQQKTGSPPRYLLYYYSDSYKHQSSGVPSRFSGSKDASANAGLLLISGLQSEDEADYYCSAYKSGSYKAPVFGGGTHLTVLG")
-0.53
>>> test_result("9D1 chimeric llama-human mAb (antibody, human IgG1, V domains shown, also called mAb 9D1) VH: EVQLVESGGGLVQPGGSLRLSCAASGFTFSVYYMNWVRQAPGKGLEWVSDINNEGGTTYYADSVKGRFTISRDNAKNTLTLQMNSLKPEDTALYYCVRDAGYSNHVPIFDSWGQGTQVIVAS VL: QAVVTQEPSLSVSPGGTVTLTCGLSSGSVTSSHYPGWYQQTPGQAPRLLIFNTNSRHSGVPSRFSGSISGNKAALTITGAQPEDEADYYCALLNIDDGSTMFGGGTHLTVLG")
-0.96

Q) What value of measured log10 IC50 is listed for 9E1 chimeric llama-human mAb (antibody, human IgG1, V domains shown) VH: EVQLQESGGGVVQPGGSLRLSCAASGFTFDDYAMSWVRQAPGKGLEWVSSIYMYDSSTYYADSVKGRFTISTDNAKNTVYLQMNSLKSEDTAVYYCAKDINRSYGSSWSHFGPIFSSWGQGTQVTVSS VL: QAVVTQEPSLSVSPGGTVTLTCGLTSGSVTSSNYPDWYQQTPGQAPRLLIYNTNSRHSGVPSRFSGSISGNKAALTITGAQPEDEADYYCNLYMGSGGSKVFGGGTKLTVLG ?
A) 0.15

Q) Can you check 24B6 chimeric llama-human mAb (antibody, human IgG1, V domains shown) VH: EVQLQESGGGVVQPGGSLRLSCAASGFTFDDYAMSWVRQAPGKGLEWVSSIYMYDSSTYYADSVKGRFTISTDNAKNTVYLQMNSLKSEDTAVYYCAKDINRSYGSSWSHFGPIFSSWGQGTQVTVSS VL: QPVLTQPSAVSVSLGQTARITCQGGYYTHWYQQKPGQAPVLVIYINNNRPSGIPERFSGSISGNTATLTISGAQVEDEADYYCQSGSSSTIPVFGGGTKLTVLG next?
A) -0.38

Q) Can you check 5B2 chimeric llama-human mAb (antibody, human IgG1, V domains shown) VH: QVQLVESGGDLVQPGGSLRLSCAASGFTVSNPAMSWVRQAPGKGLEWVSEITNYGYNRYYADSVKGRFTISTDNAKNTLYLQMNSLRSEDSAVYYCTASLGLEYGYGDWGQGTQVTVSS VL: QSALTQPPSVSGTLGKTLTISCAGTSSDVGYGNYVSWYQQLPGTAPKLLIYRVSTRASGMPDRFSGSKSGNTASLTISGLQSEDEADYYCASYTTNNKPVFGGGTHLTVLG next?
A) -1.04

Q) Can you check 59D10 chimeric llama-human mAb (antibody, human IgG1, V domains shown) VH: EVQLVESGGGLVQPGGSLRLSCAASELSFSISEMTWVRQAPGKGLEWVSGISGVTGGSSTSYADSVKGRFTISRDNDKNTLYLQMNSLIPEDTAVYYCATTSGTYYFIPEYEYWGQGTQVTVSS VL: QSVLTQPPSVSGSPGKTVTISCAGTSSDVGYGYYVSWYQQFPGMAPKLLIYDVNKRASGIADRFSGSKAGNTASLTISGLQSEDEADYYCASYRSSANAVFGGGTHLTVLG next?
A) -0.97

Q) Can you check 57B6 chimeric llama-human mAb (antibody, human IgG1, V domains shown) VH: QLQLVESGGGLVQPGGSLRLSCAASGFSFSHYAMSWVRQAPGKGLEWVSGDNTYDGGTRYQDSVKGRFTISRDNGKNTLYLQMNSLKPEDTAVYYCAKDTGRGIMGEYGMDYWGKGTLVTVSS VL: QTVVTQEPSLSVSPGGTVTLTCGLKSGSVTSSNYPAWYQQTPGQAPRLLIYNTNSRHSGVPSRFSGSISGNKAALTITGAQPEDEADYYCALYMGSGSANAMFGGGTHLTVLG next?
A) -0.81
